Provenance of the data: ChEMBL document CHEMBL3882241

systemName: Serum amyloid P-component (Homo sapiens)
experiment: Inhibition of calcium dependent [125I]serum amyloid P-component (unknown origin) binding to immobilized Neisseria meningitidis at 2 uM incubated for 2 hrs by fluorescence/electron microscopy relative to control
inhibition for assorted compounds
experimentalReadout: inhibition (%)

[[record]]
smilesstructure = "O=C(O)[C@H]1CCCN1C(=O)Cc1cc(O)c(CC(=O)N2CCC[C@@H]2C(=O)O)cc1O"
quantityunit = "%"
measuredvalue = 76

[[record]]
smilesstructure = "O=C(O)[C@H]1CCCN1C(=O)COc1ccccc1OCC(=O)N1CCC[C@@H]1C(=O)O"
quantityunit = "%"
measuredvalue = 77

[[record]]
smilesstructure = "O=C(O)[C@H]1CCCN1C(=O)COc1cccc2c(OCC(=O)N3CCC[C@@H]3C(=O)O)cccc12"
quantityunit = "%"
measuredvalue = 72

[[record]]
smilesstructure = "Cc1c(OCC(=O)N2CCC[C@@H]2C(=O)O)cccc1OCC(=O)N1CCC[C@@H]1C(=O)O"
quantityunit = "%"
measuredvalue = 64

[[record]]
smilesstructure = "O=C(O)[C@H]1CCCN1C(=O)Cc1ccc(CC(=O)N2CCC[C@@H]2C(=O)O)cc1"
quantityunit = "%"
measuredvalue = 64


* * *

systemName: Serum amyloid P-component (Homo sapiens)
experiment: Inhibition of calcium dependent [125I]serum amyloid P-component (unknown origin) binding to immobilized chicken erythrocyte native long chromatin at 2 uM incubated for 2 hrs by gamma counting relative to control
// map inhibition to label using zone 1: < 20%; zone 2: ≥ 20% and < 40%; zone 3: ≥ 40%

[[record]]
smilesstructure = "O=C(O)[C@H]1CCCN1C(=O)CCCCC(=O)N1CCC[C@@H]1C(=O)O"
systemname = "Serum amyloid P-component (Homo sapiens)"
answerlabel = "zone 2"

[[record]]
smilesstructure = "O=C(O)[C@H]1CCCN1C(=O)COc1ccccc1OCC(=O)N1CCC[C@@H]1C(=O)O"
systemname = "Serum amyloid P-component (Homo sapiens)"
answerlabel = "zone 2"

[[record]]
smilesstructure = "O=C(O)[C@H]1CCCN1C(=O)Cc1ccc(CC(=O)N2CCC[C@@H]2C(=O)O)c2ccccc12"
systemname = "Serum amyloid P-component (Homo sapiens)"
answerlabel = "zone 2"

[[record]]
smilesstructure = "Cc1c(OCC(=O)N2CCC[C@@H]2C(=O)O)cccc1OCC(=O)N1CCC[C@@H]1C(=O)O"
systemname = "Serum amyloid P-component (Homo sapiens)"
answerlabel = "zone 2"

[[record]]
smilesstructure = "O=C(O)[C@H]1CCCN1C(=O)Cc1cccc(CC(=O)N2CCC[C@@H]2C(=O)O)c1"
systemname = "Serum amyloid P-component (Homo sapiens)"
answerlabel = "zone 1"

[[record]]
smilesstructure = "C[N+](C)(C)CCOP(=O)([O-])O"
systemname = "Serum amyloid P-component (Homo sapiens)"
answerlabel = "zone 1"

[[record]]
smilesstructure = "O=C(O)[C@H]1CCCN1C(=O)COc1ccc(OCC(=O)N2CCC[C@@H]2C(=O)O)cc1"
systemname = "Serum amyloid P-component (Homo sapiens)"
answerlabel = "zone 2"

[[record]]
smilesstructure = "O=C(O)[C@H]1CCCN1C(=O)[C@H]1CC[C@@H](C(=O)N2CCC[C@@H]2C(=O)O)CC1"
systemname = "Serum amyloid P-component (Homo sapiens)"
answerlabel = "zone 2"

[[record]]
smilesstructure = "O=C(O)[C@H]1CCCN1C(=O)COc1cccc2c(OCC(=O)N3CCC[C@@H]3C(=O)O)cccc12"
systemname = "Serum amyloid P-component (Homo sapiens)"
answerlabel = "zone 3"

[[record]]
smilesstructure = "O=C(O)[C@H]1CCCN1C(=O)Cc1cc(O)c(CC(=O)N2CCC[C@@H]2C(=O)O)cc1O"
systemname = "Serum amyloid P-component (Homo sapiens)"
answerlabel = "zone 3"

[[record]]
smilesstructure = "NCCOP(=O)(O)O"
systemname = "Serum amyloid P-component (Homo sapiens)"
answerlabel = "zone 1"

[[record]]
smilesstructure = "O=C(O)[C@H]1CCCN1C(=O)Cc1ccc(CC(=O)N2CCC[C@@H]2C(=O)O)cc1"
systemname = "Serum amyloid P-component (Homo sapiens)"
answerlabel = "zone 1"

